Tested on: MOLT-4 leukemia
Assay Overview: NCI tumour cell line growth inhibition, 48 h; in the data active = GI50 below about 0.43 µM; inactive = the rest
Possible outcomes: TRUE (active), FALSE (inactive)

>>> label_class("C#CCC(Cc1cnc2nc(N)nc(N)c2n1)c1ccc(C(=O)N[C@@H](CCC(=O)O)C(=O)O)cc1 (stereo partly drawn)")
"TRUE"
>>> label_class("Cc1ccc(-n2c3c(c4c(CN(C)C)c(O)ccc42)CCc2ccccc2C3=O)cc1")
"FALSE"
>>> label_class("COC1CC2CCC(C)C(O)(O2)C(=O)C(=O)N2CCCCC2C(=O)OC(C(C)CC2CCC(O)C(OC)C2)CC(=O)C(C)C=C(C)C(O)C(OC)C(=O)C(C)CC(C)/C=C/C=C/C=C1C (stereo not drawn)")
"TRUE"
>>> label_class("CCCc1cc2c(=O)c(C(=O)OC)c[nH]c2cc1N(CC)CC")
"FALSE"
>>> label_class("Cn1c(/C=C(\\C#N)c2ccccc2)nc2c(N3CCOCC3)nc(Cl)nc21")
"FALSE"
>>> label_class("COc1ccc(/C=C/C(=O)c2ccc(SC)cc2)cc1OC")
"FALSE"
>>> label_class("CC(C)[C@H](CO)Nc1nc(Nc2ccc(C(=O)NCCNS(=O)(=O)c3cccc4c(N(C)C)cccc34)c(Cl)c2)c2ncn(C(C)C)c2n1")
"FALSE"
>>> label_class("COc1ccc(/C=C\\c2cc(OC)c(OC)c(OC)c2)cc1OC(=O)c1cccc(Cn2cc(CCOC(=O)[C@H](N)Cc3cn(C)c4ccccc34)nn2)c1")
"TRUE"
